molecular target: PDE5 (Homo sapiens, UniProt O76074)
measured metric: pIC50
Numbers only, as −log10 of the molar value.

Entry Cn1cc(-c2ccncc2)c(-c2ccc(OCc3ccc4ccccc4n3)cc2)n1 [Pf-2545920] has what pIC50? 5.07

* * *

biological target: PDE2A (Homo sapiens, UniProt O00408); test: Phosphodiesterase isozyme specificity, PDE2A; type: biochemical; settings: cGMP substrate, read-out: cGMP IC50
Sequence (O00408 whole entry, species assumed): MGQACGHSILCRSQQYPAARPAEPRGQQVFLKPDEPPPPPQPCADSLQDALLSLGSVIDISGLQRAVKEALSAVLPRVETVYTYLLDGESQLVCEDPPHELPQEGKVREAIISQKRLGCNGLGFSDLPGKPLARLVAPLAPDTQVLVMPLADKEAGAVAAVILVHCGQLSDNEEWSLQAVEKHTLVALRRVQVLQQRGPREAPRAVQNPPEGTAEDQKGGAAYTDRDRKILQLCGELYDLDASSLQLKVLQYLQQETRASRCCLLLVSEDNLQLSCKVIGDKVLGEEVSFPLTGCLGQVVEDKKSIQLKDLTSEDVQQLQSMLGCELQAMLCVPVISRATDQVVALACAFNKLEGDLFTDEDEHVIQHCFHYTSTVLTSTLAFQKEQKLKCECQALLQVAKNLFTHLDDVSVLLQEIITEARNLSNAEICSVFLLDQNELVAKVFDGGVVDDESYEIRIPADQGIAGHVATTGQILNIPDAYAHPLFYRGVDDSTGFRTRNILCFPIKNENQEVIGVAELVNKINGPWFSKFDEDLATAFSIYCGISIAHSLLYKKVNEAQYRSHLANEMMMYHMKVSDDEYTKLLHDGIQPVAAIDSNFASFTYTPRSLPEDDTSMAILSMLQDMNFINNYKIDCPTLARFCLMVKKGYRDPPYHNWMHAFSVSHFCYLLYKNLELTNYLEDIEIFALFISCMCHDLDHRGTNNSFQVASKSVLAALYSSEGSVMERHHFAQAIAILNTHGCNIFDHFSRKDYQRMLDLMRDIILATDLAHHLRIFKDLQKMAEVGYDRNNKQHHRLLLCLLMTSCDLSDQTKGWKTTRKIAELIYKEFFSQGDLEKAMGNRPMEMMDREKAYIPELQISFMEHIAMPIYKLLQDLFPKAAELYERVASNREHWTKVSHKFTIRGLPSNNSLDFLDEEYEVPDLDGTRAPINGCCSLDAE
measured metric: IC50

Entry "Cn1cc(-c2ccncc2)c(-c2ccc(OCc3ccc4ccccc4n3)cc2)n1" has what IC50? > 50 µM

* * *

target: PDE2A (Homo sapiens); test: Phosphodiesterase isozyme specificity, PDE2A; format: biochemical; conditions: cAMP substrate, read-out: cAMP IC50
measured metric: pIC50
Answers are plain numbers, as −log10 of the molar value.

Entry Cn1cc(-c2ccncc2)c(-c2ccc(OCc3ccc4ccccc4n3)cc2)n1 [Pf-2545920] has what pIC50? 4.44

* * *

molecular target: PDE3A (Homo sapiens); assay: Phosphodiesterase isozyme specificity, PDE3A; assay type: biochemical; settings: cAMP substrate, read-out: cAMP IC50
Sequence (Q14432 whole entry, species assumed): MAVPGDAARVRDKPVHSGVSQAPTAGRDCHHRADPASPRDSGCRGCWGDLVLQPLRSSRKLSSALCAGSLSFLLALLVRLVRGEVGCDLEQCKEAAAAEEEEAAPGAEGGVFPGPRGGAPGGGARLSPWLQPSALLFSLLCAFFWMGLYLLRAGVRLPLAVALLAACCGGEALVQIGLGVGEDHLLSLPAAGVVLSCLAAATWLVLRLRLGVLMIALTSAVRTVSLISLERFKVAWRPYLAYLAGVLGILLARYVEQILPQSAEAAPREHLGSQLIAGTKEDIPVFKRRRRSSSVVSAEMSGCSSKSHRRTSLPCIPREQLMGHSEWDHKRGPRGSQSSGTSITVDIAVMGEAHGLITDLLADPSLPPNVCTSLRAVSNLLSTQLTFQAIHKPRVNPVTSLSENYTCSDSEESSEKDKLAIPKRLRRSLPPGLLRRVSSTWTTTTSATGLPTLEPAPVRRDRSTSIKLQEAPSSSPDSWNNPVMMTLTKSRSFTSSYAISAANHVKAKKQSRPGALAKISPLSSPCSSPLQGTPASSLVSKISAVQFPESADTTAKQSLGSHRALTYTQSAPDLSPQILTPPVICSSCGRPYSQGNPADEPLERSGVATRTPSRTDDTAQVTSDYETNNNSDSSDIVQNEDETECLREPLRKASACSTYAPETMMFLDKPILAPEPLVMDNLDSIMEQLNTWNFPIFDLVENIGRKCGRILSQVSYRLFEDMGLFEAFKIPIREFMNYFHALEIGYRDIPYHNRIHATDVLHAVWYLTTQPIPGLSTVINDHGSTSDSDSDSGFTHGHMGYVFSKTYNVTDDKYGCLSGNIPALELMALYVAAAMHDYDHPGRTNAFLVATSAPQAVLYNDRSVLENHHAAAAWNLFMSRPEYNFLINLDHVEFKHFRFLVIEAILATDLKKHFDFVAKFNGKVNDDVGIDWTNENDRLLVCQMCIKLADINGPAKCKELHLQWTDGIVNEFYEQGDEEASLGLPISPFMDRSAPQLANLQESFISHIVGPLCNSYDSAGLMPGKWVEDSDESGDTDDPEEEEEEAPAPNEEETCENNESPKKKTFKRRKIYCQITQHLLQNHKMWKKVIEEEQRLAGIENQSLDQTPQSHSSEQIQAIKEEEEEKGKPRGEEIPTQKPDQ
measured metric: IC50

Entry "Cn1cc(-c2ccncc2)c(-c2ccc(OCc3ccc4ccccc4n3)cc2)n1" has what IC50? > 50 µM

* * *

system: SW620; assay: Growth inhibition assay (Cell Titer Glo), SW620; type: cell-based; conditions: Homo sapiens, SW-620; SW620, 72 hours
measured metric: pIC50
One number for each entry, as −log10 of the molar value.

Entry "Cn1cc(-c2ccncc2)c(-c2ccc(OCc3ccc4ccccc4n3)cc2)n1" has what pIC50? 4.71

* * *

target: PDE4B2 (Homo sapiens); experiment: Phosphodiesterase isozyme specificity, PDE4B2; assay type: biochemical; conditions: PDE4B2, cAMP substrate
Sequence (Q07343 1-564 isoform Q07343-2, species assumed): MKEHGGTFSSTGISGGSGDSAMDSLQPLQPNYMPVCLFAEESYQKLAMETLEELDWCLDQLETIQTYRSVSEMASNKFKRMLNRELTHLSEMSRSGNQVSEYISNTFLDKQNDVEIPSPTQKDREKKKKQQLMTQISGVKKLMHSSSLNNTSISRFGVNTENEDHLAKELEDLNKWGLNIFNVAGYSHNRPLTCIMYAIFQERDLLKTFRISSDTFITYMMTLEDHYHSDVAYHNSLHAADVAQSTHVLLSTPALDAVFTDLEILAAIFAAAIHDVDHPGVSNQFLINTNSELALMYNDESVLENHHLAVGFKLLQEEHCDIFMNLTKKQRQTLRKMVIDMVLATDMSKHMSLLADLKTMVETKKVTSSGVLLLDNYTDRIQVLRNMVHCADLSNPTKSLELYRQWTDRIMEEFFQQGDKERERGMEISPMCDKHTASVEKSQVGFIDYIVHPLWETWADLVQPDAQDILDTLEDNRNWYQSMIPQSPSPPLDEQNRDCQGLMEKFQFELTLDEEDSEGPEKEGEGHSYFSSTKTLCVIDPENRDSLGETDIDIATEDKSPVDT
measured metric: pIC50
Answers are plain numbers, as −log10 of the molar value.

Give recorded pIC50 with PDE4B2 (Homo sapiens) for the following molecule: "Cn1cc(-c2ccncc2)c(-c2ccc(OCc3ccc4ccccc4n3)cc2)n1" 5.63

Attribution: paper PMC4868691
